experiment: Cytotoxicity against human MCF-10A cells assessed as reduction in cell viability for 48 hrs by MTT assay; format: toxicity, cell-based
IC50 at 48 h overview
Answer with a number only, understood to be in µM.

Input: IC50 at 48 h for O=C1/C(=C/c2ccccc2)N=C2Sc3cccc(O)c3N12 ?
Output: 35

Input: Now the same for COc1cc([C@@H]2c3cc4c(cc3[C@@H](O[C@@H]3O[C@@H]5CO[C@@H](C)O[C@H]5[C@H](O)[C@H]3O)[C@H]3COC(=O)[C@H]23)OCO4)cc(OC)c1O [ETOPOSIDE]
Output: 102

Input: And then O=C1/C(=C/c2ccc(Cl)cc2)N=C2Sc3cccc(O)c3N12 , what is it?
Output: 40

FYI, the data here is from ChEMBL document CHEMBL5126578.
